- test: Toxicity liver stage against HepG2, at 10uM
- Type: cell-based
- Parameters: test concentration 10 uM, cell line HepG2-A16-CD81EGFP
- measurement-context: human, HepG2-A16-CD81EGFP cells; read-out: INHIBITION
parameter: cytotoxicity at 10 µM (%)

molecule="c1cnc(-c2nc(C3CCOC3)no2)cn1 (stereo not drawn)" numeric_readout=7.09
molecule=Cc1cnc(N2CC[C@H]3[C@H](C[C@@H](CN(C)C)N3C)C2)nc1 numeric_readout=5.71
molecule=CCOC(=O)N1CCC(C(=O)c2cc(F)ccc2F)CC1 numeric_readout=-8.11
molecule=Cc1ccc(CN2CC[C@H]3CO[C@H](CN4CCN(C)CC4)[C@H]3C2)o1 numeric_readout=-118
molecule="O=C1CCC2(CCOC2)CN1CCCOc1cccnc1 (stereo not drawn)" numeric_readout=-16.1
molecule="CCC(O)CN(c1ccccc1)S(=O)(=O)c1cnc(C)s1 (stereo not drawn)" numeric_readout=-45.6
molecule=Cc1nnsc1C(=O)N(C)Cc1nc(-c2ccccn2)no1 numeric_readout=1.89
molecule=CN(Cc1cccnc1)c1nccc(N2CCN[C@H]3CS(=O)(=O)C[C@H]32)n1 numeric_readout=5.82
molecule="O=C(Cc1cccnc1)NC1CCCN(CCCc2ccccc2)C1 (stereo not drawn)" numeric_readout=11.5
molecule=Cc1cc(NCCCNS(C)(=O)=O)nc2ccccc12 numeric_readout=-4.69
molecule="CC(=O)C(Cc1ccccc1)NC(=O)CSc1nccn1C1CC1 (stereo not drawn)" numeric_readout=5.22
molecule="CC1c2ncc(Cn3cncn3)n2CCN1C(=O)C1CCOCC1 (stereo not drawn)" numeric_readout=-13
molecule=Cc1ccc(CN(C(=O)NCc2nnc3n2CCCCC3)C2CC2)o1 numeric_readout=9.35
molecule="CC(NC(=O)NCCCc1n[nH]c(N)c1C#N)c1ccccc1 (stereo not drawn)" numeric_readout=-7.21
molecule=CNC(=O)c1cccnc1N1CCC(Oc2ccc(F)cc2)CC1 numeric_readout=3.41
molecule=CC(C)c1noc(Cn2ncc3ccccc3c2=O)n1 numeric_readout=-3.69
molecule=COc1ccccc1OCCCc1cc(C#N)ccn1 numeric_readout=-11.5
molecule="c1cnn(CC2CN(Cc3nc(-c4ccoc4)no3)CCO2)c1 (stereo not drawn)" numeric_readout=-23.8
molecule=Cc1cc(C)n(Cc2cccc(C(=O)N3CCOCC3(C)C)c2)n1 numeric_readout=-3.51
molecule=O=C(NC[C@H]1OC[C@@H]2CCN(c3ncccn3)C[C@@H]21)c1ccnnc1 numeric_readout=7.37
molecule="c1cnnc(NCC2CN(CCN3CCCCC3)CCO2)c1 (stereo not drawn)" numeric_readout=-11.9
molecule="CC(C)(C)c1nnc(CN2CCCC2Cn2cncn2)o1 (stereo not drawn)" numeric_readout=-4.04
molecule="CCC(C)C(=O)Nc1ccc(CCN2CCOCC2)cc1 (stereo not drawn)" numeric_readout=-0.578
